experiment: Absorption wavelength of the synthesized dye (HP 8452 diode array spectrophotometer); type: physicochemical; details: water
# λabs (water) per entry
Supply the numeric figure in nm, leaving out any unit text.

Example entries and their recorded answers appear below.
INSERT INTO results (entry_smiles, result_unit, reading) VALUES
  ('C=CS(=O)(=O)CCNC(=O)CCCCCN1/C(=C/C=C/C=C/C=C/C2=[N+](CC)c3ccc4c(S(=O)(=O)[O-])cc(S(=O)(=O)O)cc4c3C2(C)C)C(C)(C)c2c1ccc1c(S(=O)(=O)O)cc(S(=O)(=O)O)cc21', 'nm', 777),
  ('CC[N+]1=C(/C=C/C=C/C=C/C=C2/N(CCCCCC(=O)O)c3ccc4c(S(=O)(=O)O)cc(S(=O)(=O)O)cc4c3C2(C)C)C(C)(C)c2c1ccc1c(S(=O)(=O)[O-])cc(S(=O)(=O)O)cc21', 'nm', 777),
  ('CC[N+]1=C(/C=C/C=C2/N(CCCCCC(=O)O)c3ccc4c(S(=O)(=O)O)cc(S(=O)(=O)O)cc4c3C2(C)C)C(C)(C)c2c1ccc1c(S(=O)(=O)[O-])cc(S(=O)(=O)O)cc21', 'nm', 579);

Now look at this entry.
Task item: I'd like to know its λabs (water). The compound in question is "C=CS(=O)(=O)CCNC(=O)CCCCCN1/C(=C/C=C/C=C/C2=[N+](CC)c3ccc4c(S(=O)(=O)[O-])cc(S(=O)(=O)O)cc4c3C2(C)C)C(C)(C)c2c1ccc1c(S(=O)(=O)O)cc(S(=O)(=O)O)cc21"
Reply: 675
